- Test system: U2OS
- EXPERIMENT DESCRIPTION: Multiplex assay against U2OS
- Type: toxicity, cell-based
- CONDITION INFO: human, 12 h, 1 µM, compound concentration 1 uM, replicate 1
PROPERTY LABEL: Population Hoechst High Intensity Objects (%)

INSERT INTO measurements (molecule, units_label, assay_result) VALUES
  ('Cl.O=c1c2cccn2c2ccccc2n1CCCN1CCC(c2ccc(Cl)cc2)CC1', '%', 7),
  ('CN(C)C(=O)C(CCN1CCC(O)(c2ccc(Cl)cc2)CC1)(c1ccccc1)c1ccccc1.Cl [LOPERAMIDE HYDROCHLORIDE]', '%', 4),
  ('Cn1nc(C(F)(F)F)cc1-c1cnc(N2CCc3cc(S(=O)(=O)Nc4c(F)cc(Cl)cc4F)cc(N4CCCC4=O)c32)nc1', '%', 4),
  ('Cl.O=C(c1ccc(Nc2nccc(-c3cc4ccccc4s3)n2)cc1)N1CCC(N2CCCC2)CC1', '%', 1),
  ('COC(=N)c1nc2ccc3ncnc(Nc4ccc(OC)cc4F)c3c2s1', '%', 8),
  ('O=C1NC(=O)C(c2cnc3ccccn23)=C1c1cn2c3c(cc(F)cc13)CN(C(=O)N1CCCCC1)CC2', '%', 8),
  ('CCn1cc(-c2ccnc3[nH]c(-c4cccc(CN(C)C)c4)cc23)c(-c2ccc(NC(=O)N(C)C)cc2)n1', '%', 2),
  ('O=C(Cc1ccc(-c2ccc(OCCN3CCOCC3)cc2)cn1)NCc1ccccc1', '%', 7),
  ('CCc1cccc(CC)c1NC(=O)c1nn(C)c2c1CCc1cnc(Nc3ccc(C(=O)NC4CCN(C)CC4)cc3OC(F)(F)F)nc1-2', '%', 9),
  ('O=C1N/C(=N/c2ccccc2F)S/C1=C\c1ccc(C(=O)O)cc1', '%', 9),
  ('Cc1ccc(C(=O)Nc2cccc(C(F)(F)F)c2)cc1Nc1nc(-c2cccnc2)nc2c1cnn2C', '%', 10),
  ('C=CCn1c(=O)c2cnc(Nc3ccc(N4CCN(C)CC4)cc3)nc2n1-c1cccc(C(C)(C)O)n1', '%', 3),
  ('O=C(Nc1cccnn1)N1CCC(=Cc2cccc(Oc3ccc(C(F)(F)F)cn3)c2)CC1', '%', 3),
  ('CCCn1c(=O)c2[nH]c(-c3cnn(Cc4cccc(C(F)(F)F)c4)c3)nc2n(CC)c1=O', '%', 9),
  ('CN[C@@H]1C[C@H]2O[C@@](C)([C@@H]1OC)n1c3ccccc3c3c4c(c5c6ccccc6n2c5c31)C(=O)NC4', '%', 4),
  ('Cc1ccc2nc(NCCN)c3ncc(C)n3c2c1.O=C(O)C(F)(F)F.O=C(O)C(F)(F)F', '%', 1),
  ('CCN1CCN(Cc2ccc(Nc3ncc(F)c(-c4cc(F)c5nc(C)n(C(C)C)c5c4)n3)nc2)CC1.CS(=O)(=O)O', '%', 8),
  ('O=C(Nc1ccc(Cl)cc1)Nc1cccc(-c2cccc(N3CCCC3)n2)c1', '%', 10),
  ('CN1C2CCC1CC(OC(c1ccc(F)cc1)c1ccc(F)cc1)C2.Cl (stereo not drawn)', '%', 4),
  ('C=C1/C(=C\C=C2/CCC[C@]3(C)[C@@H]([C@H](C)/C=C/[C@H](C)C(C)C)CC[C@@H]23)C[C@@H](O)C[C@@H]1O', '%', 6),
  ('COc1ccc(-c2ccc3c(N4CCOCC4)nc(N4C[C@@H](C)O[C@@H](C)C4)nc3n2)cc1CO', '%', 0),
  ('S=C(NCCCc1c[nH]cn1)NCCCN(Cc1ccc(Cl)c(Cl)c1)c1ccc(Br)cn1', '%', 9),
  ('CN1CCC(=C2c3ccccc3CC(=O)c3sccc32)CC1.O=C(O)/C=C/C(=O)O [KETOTIFEN FUMARATE]', '%', 5);

---

Quick reference for Population Apoptotic (%) among some compounds
- System: U2OS
- EXPERIMENT DESCRIPTION: Multiplex assay against U2OS
- Assay type: toxicity, cell-based
- CONDITION INFO: human, 24 h, 1 µM, compound concentration 1 uM, replicate 2
PROPERTY LABEL: Population Apoptotic (%)

INSERT INTO results (compound, test_system, property_label, assay_result) VALUES
  ('O=C(Nc1cccnn1)N1CCC(=Cc2cccc(Oc3ccc(C(F)(F)F)cn3)c2)CC1', 'U2OS', 'Population Apoptotic (%)', 27),
  ('COc1ccc(-c2ccc3c(N4CCOCC4)nc(N4C[C@@H](C)O[C@@H](C)C4)nc3n2)cc1CO', 'U2OS', 'Population Apoptotic (%)', 16),
  ('Cl.O=C(c1ccc(Nc2nccc(-c3cc4ccccc4s3)n2)cc1)N1CCC(N2CCCC2)CC1', 'U2OS', 'Population Apoptotic (%)', 44),
  ('O=C1N/C(=N/c2ccccc2F)S/C1=C\c1ccc(C(=O)O)cc1', 'U2OS', 'Population Apoptotic (%)', 0),
  ('CN1C2CCC1CC(OC(c1ccc(F)cc1)c1ccc(F)cc1)C2.Cl (stereo not drawn)', 'U2OS', 'Population Apoptotic (%)', 20),
  ('CN[C@@H]1C[C@H]2O[C@@](C)([C@@H]1OC)n1c3ccccc3c3c4c(c5c6ccccc6n2c5c31)C(=O)NC4', 'U2OS', 'Population Apoptotic (%)', 94),
  ('NC(=O)c1cccc(-c2cc(Nc3ccc(OC(F)(F)F)cc3)ncn2)c1', 'U2OS', 'Population Apoptotic (%)', 20),
  ('CCCS(=O)(=O)Nc1ccc(F)c(C(=O)c2c[nH]c3ncc(Cl)cc23)c1F', 'U2OS', 'Population Apoptotic (%)', 11);

---

- Test system: U2OS
- EXPERIMENT DESCRIPTION: Multiplex assay against U2OS
- Assay type: toxicity, cell-based
- CONDITION INFO: human, 24 h, 1 µM, compound concentration 1 uM, replicate 1
Quick reference for Population Mitotic Cells (%) among some compounds
PROPERTY LABEL: Population Mitotic Cells (%)

INSERT INTO measurements (compound, assay_result) VALUES
  ('Cc1cc(C)c(S(=O)(=O)N(Cc2ccc(-c3cccc(S(C)(=O)=O)c3)cc2)Cc2ccc(C(F)(F)F)o2)c(C)c1', 60),
  ('CCCS(=O)(=O)c1nc(NC2CC2)cc(-c2ccc3c(ccn3C3CC(C)(C)NC(C)(C)C3)c2)n1', 50),
  ('Cl.O=C(c1ccc(Nc2nccc(-c3cc4ccccc4s3)n2)cc1)N1CCC(N2CCCC2)CC1', 61),
  ('CCN1CCN(c2ccc(Nc3cc(N(C)C(=O)Nc4c(Cl)c(OC)cc(OC)c4Cl)ncn3)cc2)CC1 [INFIGRATINIB]', 50);

---

- Test system: HEK-293T
- EXPERIMENT DESCRIPTION: Multiplex assay against HEK293T
- Type: toxicity, cell-based
- CONDITION INFO: human, 24 h, 10 µM, compound concentration 10 uM, replicate 2
PROPERTY LABEL: Population Apoptotic (%)

INSERT INTO assay_data (compound, property_label, assay_result) VALUES
  ('COc1cc2ncnc(Nc3ccc(F)c(Cl)c3)c2cc1NC(=O)/C=C/CN1CCCCC1 [DACOMITINIB ANHYDROUS]', 'Population Apoptotic (%)', 4),
  ('CCOC(=O)c1c(C)[nH]c2ccc3c(c12)CN1CCc2cc(OC)ccc2C1O3 (centres undefined)', 'Population Apoptotic (%)', 92),
  ('NC(=O)c1cccc(-c2cc(Nc3ccc(OC(F)(F)F)cc3)ncn2)c1', 'Population Apoptotic (%)', 4),
  ('S=C(NCCCc1c[nH]cn1)NCCCN(Cc1ccc(Cl)c(Cl)c1)c1ccc(Br)cn1', 'Population Apoptotic (%)', 81);

---

- System: HEK-293T
- EXPERIMENT DESCRIPTION: Multiplex assay against HEK293T
- Assay type: toxicity, cell-based
- CONDITION INFO: human, 24 h, 10 µM, compound concentration 10 uM, replicate 1
PROPERTY LABEL: Population Mitotic Cells (%)

INSERT INTO measurements (compound, property_label, assay_result) VALUES
  ('CN(C)C(=O)C(CCN1CCC(O)(c2ccc(Cl)cc2)CC1)(c1ccccc1)c1ccccc1.Cl [LOPERAMIDE HYDROCHLORIDE]', 'Population Mitotic Cells (%)', 11),
  ('CCc1cccc(CC)c1NC(=O)c1nn(C)c2c1CCc1cnc(Nc3ccc(N4CCN(C)CC4)cc3OC)nc1-2', 'Population Mitotic Cells (%)', 72),
  ('COC(=N)c1nc2ccc3ncnc(Nc4ccc(OC)cc4F)c3c2s1', 'Population Mitotic Cells (%)', 83),
  ('Cl.Oc1ccc2c3c1O[C@H]1c4[nH]c5c(c4C[C@@]4(O)[C@@H](C2)N(CC2CC2)CC[C@]314)C[C@@]1(O)[C@H]2Cc3ccc(O)c4c3[C@@]1(CCN2CC1CC1)[C@H]5O4', 'Population Mitotic Cells (%)', 64),
  ('O=C(Cc1ccc(-c2ccc(OCCN3CCOCC3)cc2)cn1)NCc1ccccc1', 'Population Mitotic Cells (%)', 45),
  ('CCN1CCN(c2ccc(Nc3cc(N(C)C(=O)Nc4c(Cl)c(OC)cc(OC)c4Cl)ncn3)cc2)CC1', 'Population Mitotic Cells (%)', 80),
  ('CCN1CCN(Cc2ccc(Nc3ncc(F)c(-c4cc(F)c5nc(C)n(C(C)C)c5c4)n3)nc2)CC1.CS(=O)(=O)O', 'Population Mitotic Cells (%)', 27),
  ('CNc1cc(Oc2cc(C(=O)Nc3cc(N4CCN(C)CC4)cc(C(F)(F)F)c3)ccc2C)ncn1', 'Population Mitotic Cells (%)', 11),
  ('CCn1cc(-c2ccnc3[nH]c(-c4cccc(CN(C)C)c4)cc23)c(-c2ccc(NC(=O)N(C)C)cc2)n1', 'Population Mitotic Cells (%)', 68),
  ('CCCS(=O)(=O)Nc1ccc(F)c(C(=O)c2c[nH]c3ncc(Cl)cc23)c1F', 'Population Mitotic Cells (%)', 84),
  ('Cc1ccc2nc(NCCN)c3ncc(C)n3c2c1.O=C(O)C(F)(F)F.O=C(O)C(F)(F)F', 'Population Mitotic Cells (%)', 61),
  ('CN1C2CCC1CC(OC(c1ccc(F)cc1)c1ccc(F)cc1)C2.Cl (stereo unspecified)', 'Population Mitotic Cells (%)', 20),
  ('Cn1nc(C(F)(F)F)cc1-c1cnc(N2CCc3cc(S(=O)(=O)Nc4c(F)cc(Cl)cc4F)cc(N4CCCC4=O)c32)nc1', 'Population Mitotic Cells (%)', 73),
  ('CCOC(=O)c1c(C)[nH]c2ccc3c(c12)CN1CCc2cc(OC)ccc2C1O3 (stereo unspecified)', 'Population Mitotic Cells (%)', 8),
  ('CN1CCN(C(=O)C(C)(C)c2ccc(C(=O)Nc3cn4cc(-c5cc(C(C)(C)C)cc(C(C)(C)C)c5)ccc4n3)cc2)CC1', 'Population Mitotic Cells (%)', 72),
  ('COc1ccc(S(=O)(=O)N(CCO)c2ccccc2CN(C)C/C=C/c2ccc(Cl)cc2)cc1.O=P(O)(O)O', 'Population Mitotic Cells (%)', 82),
  ('NC(=O)c1cccc(-c2cc(Nc3ccc(OC(F)(F)F)cc3)ncn2)c1', 'Population Mitotic Cells (%)', 82),
  ('Cc1cn(-c2cc(NC(=O)c3ccc(C)c(Nc4nccc(-c5cccnc5)n4)c3)cc(C(F)(F)F)c2)cn1', 'Population Mitotic Cells (%)', 12),
  ('S=C(NCCCc1c[nH]cn1)NCCCN(Cc1ccc(Cl)c(Cl)c1)c1ccc(Br)cn1', 'Population Mitotic Cells (%)', 17),
  ('C=CCn1c(=O)c2cnc(Nc3ccc(N4CCN(C)CC4)cc3)nc2n1-c1cccc(C(C)(C)O)n1', 'Population Mitotic Cells (%)', 78),
  ('CNC(=O)c1ccc(Nc2nc(OC3CCCC3)c3c(-c4ccc5nc(C)oc5c4)c[nH]c3n2)c(OC)c1', 'Population Mitotic Cells (%)', 75),
  ('Cc1cc(C)c(S(=O)(=O)N(Cc2ccc(-c3cccc(S(C)(=O)=O)c3)cc2)Cc2ccc(C(F)(F)F)o2)c(C)c1', 'Population Mitotic Cells (%)', 47),
  ('CCc1cccc(CC)c1NC(=O)c1nn(C)c2c1CCc1cnc(Nc3ccc(C(=O)NC4CCN(C)CC4)cc3OC(F)(F)F)nc1-2', 'Population Mitotic Cells (%)', 25),
  ('O=C1N/C(=N/c2ccccc2F)S/C1=C\c1ccc(C(=O)O)cc1', 'Population Mitotic Cells (%)', 48),
  ('CCn1c(=O)c(-c2ccc(-c3cncs3)cc2Cl)cc2cnc(Nc3ccc(N4CCN(C)CC4)cc3)nc21', 'Population Mitotic Cells (%)', 40),
  ('COc1cc(N2CCN(C)CC2)ccc1Nc1ncc2c(n1)N(C)c1ccccc1C(=O)N2C', 'Population Mitotic Cells (%)', 30);
